// reported IC50 per item
- Test Target: Human KLK1 (Homo sapiens, UniProt P06870)
- Sequence (P06870 25-262): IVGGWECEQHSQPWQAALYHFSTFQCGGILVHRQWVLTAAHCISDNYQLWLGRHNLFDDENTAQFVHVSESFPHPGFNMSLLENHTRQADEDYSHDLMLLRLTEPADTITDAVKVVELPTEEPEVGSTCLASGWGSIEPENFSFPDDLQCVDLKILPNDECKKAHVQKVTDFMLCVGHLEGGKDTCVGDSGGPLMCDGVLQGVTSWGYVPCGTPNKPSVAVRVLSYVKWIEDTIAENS

{"Compound": "CCN(C)[C@@H](Cc1ccccc1)C(=O)N[C@@H](Cc1ccc(F)c(F)c1)C(=O)NCc1ccc(N)nc1", "IC50 / nM": 13.7}
{"Compound": "C[C@@H](C(=O)N[C@@H](Cc1ccc(F)c(F)c1)C(=O)NCc1ccc(N)nc1)N1CCCC1", "IC50 / nM": 3}
{"Compound": "Nc1ccc(CNC(=O)[C@H](Cc2cccc3ccccc23)NC(=O)c2cc3cc(O)ccc3[nH]2)cn1", "IC50 / nM": 7.2}
{"Compound": "Cc1cc(C)c(C(=O)N[C@@H](Cc2ccc(C(C)(C)C)cc2)C(=O)NCc2ccc(N)nc2)[nH]1", "IC50 / nM": 122}
{"Compound": "CN1C[C@H](O)C[C@@H]1C(=O)N[C@@H](Cc1ccc(F)c(F)c1)C(=O)NCc1ccc(N)nc1", "IC50 / nM": 55.7}
{"Compound": "Nc1ccc(CNC(=O)[C@H](NC(=O)[C@@H](N)Cc2ccccc2)C(C2CCCCC2)C2CCCCC2)cn1", "IC50 / nM": 24.4}
{"Compound": "CCC(C)[C@@H](N)C(=O)N[C@@H](Cc1ccccc1C(F)(F)F)C(=O)NCc1ccc(N)nc1 (stereo partly shown)", "IC50 / nM": 9.8}
